- System: RPMI-8226
- experimentNotes: NCI tumour cell line growth inhibition, 48 h
Calls of active or inactive are those of the source. Cut-off read from the data, not from the text of the source: active = GI50 up to about 1.1 µM and inactive = higher.
Assign a class; possible classes are y = active, n = inactive

# molecule, answerLabel
rows = [
    ("C=C1CC(OC)(C(O)C(=O)N[C@H]2OCO[C@H]3C2O[C@H](C[C@@H](CO)OC)C(C)(C)C3OC)O[C@H](C)[C@@H]1C (stereo partly specified)", "y"),
    ("CCOP(=O)(OCC)C(Nc1ccc(F)cc1)c1ccccc1 (stereo unspecified)", "n"),
    ("CC(C)C1CN(C(=O)OCc2ccccc2)C2N1C(=O)C2(C)OCc1ccccc1 (stereo unspecified)", "n"),
]

Inquiry: Just curious, what result did `CC(C)c1cccc(C(C)C)c1N1C(=O)C(=O)C(c2nc3ccccc3o2)C(=O)C1=O` get here?
Reply text: n

Inquiry: Any idea what this test logged for `COc1c(C(=O)O)cccc1-c1cccc(C(=O)NCCN(CCNC(=O)c2cccc(-c3cccc(C(=O)O)c3OC)c2OC)CCNC(=O)c2cccc(-c3cccc(C(=O)O)c3OC)c2OC)c1OC` ?
Reply text: n

Inquiry: Just curious, what result did CCOC(=O)C(Cc1ccc(N(CCCl)CCCl)cc1)NC(=O)C(Cc1ccccc1)NC=O (stereo unspecified) get here?
Reply text: y

Inquiry: Per the assay record, what outcome was assigned to `Cc1cc(S(=O)(=O)Nc2nc(N)nc(N(C)C)n2)c(S)cc1Cl` ?
Reply text: n

Inquiry: For COC(=O)C(CCC(=O)CCl)N1C(=O)c2ccccc2C1=O (stereo unspecified) , what call appears in the results of this test?
Reply text: n

Inquiry: Answer briefly: the call reported for `CC(C)CC(=O)OC[n+]1cccc(-c2c(COC(=O)NC(C)C)c(COC(=O)NC(C)C)c3n2CCC3)c1` in this assay.
Reply text: n

Inquiry: For COC(=O)C(C)(Cc1ccc2c(c1)nnn2C(C)=O)NC(C)=O (stereo unspecified) , what call appears in the results of this test?
Reply text: n

Inquiry: Test call for this molecule, please: COc1ccc(OC)c(C2CCc3cnc4nc(N)nc(N)c4c3C2)c1 (stereo unspecified)
Reply text: n

Inquiry: Which outcome was assigned to C/C(C=O)=C1\C(O)C[C@]1(C)C1CC(C)(C)CC1O (stereo partly specified) in this test?
Reply text: n

###

- Test system: UACC-257
- experimentNotes: NCI tumour cell line growth inhibition, 48 h
The source made the active and inactive calls. Cut-off read from the data, not from the text of the source: active = GI50 up to about 1.1 µM and inactive = higher. Where a SMILES comes first, the peptide text is derived from it. [ ]: non-standard residue; d: D form. ξ: configuration not given here. ξThz(5,5-Me2) = CC1(C)SCNC1C(=O)O
attributeMeasured: GI50

Please review the following examples before continuing.
# compound, GI50
rows = [
    ("CC(C)(C)c1ccc2c(c1)S(=O)(=O)Nc1ccccc1NS(=O)(=O)c1cc(C(C)(C)C)ccc1OCCOCCOCCO2", "> 100 µM (inactive)"),
    ("CSCC[C@H](NC(=O)[C@H](CC(C)C)NC(=O)[C@H](Cc1c[nH]cn1)NC(=O)CNC(=O)C1N(C(=O)[C@@H](C)NC(=O)[C@H](Cc2c[nH]c3ccccc23)NC(=O)[C@H](CCC(N)=O)NC(=O)[C@@H](N)CC(N)=O)CSC1(C)C)C(N)=O (stereo partly drawn) (H-NQW[dA][ξThz(5,5-Me2)]GHLM-NH2)", "> 25 µM (inactive)"),
    ("COc1ccc(C(=O)C(c2ccc(OC)cc2)C2(O)C(=O)Nc3c2ccc(Cl)c3C)cc1 (stereo not drawn)", "92.9 µM (inactive)"),
]

Okay, here is my list. What is GI50 for each of these?
1. Cc1cc(NS(=O)(=O)c2ccc(Nc3c4ccccc4nc4c(C(=O)NC(CO)(CO)CO)cccc34)cc2)no1
2. O=Cc1cc2c(s1)C(=O)c1sccc1C2=O
3. Cc1ccc(O)c(Cc2nc3ccccc3nc2-c2cccc(Br)c2)c1
4. Cc1coc2c1CC1OC1(C)CCC1OC1(C)C2 (stereo not drawn)
5. CC1(CCOCc2ccccc2)NC(=O)NC1=O (stereo not drawn)
6. CC(O)c1ccc(C(O)/C(=N\NC(=O)c2ccncc2)c2nc3ccc([N+](=O)[O-])cc3nc2O)cc1 (stereo not drawn)
7. C=C1CC(OC)(C(O)C(=O)N[C@H]2OCO[C@H]3C2O[C@H](C[C@@H](CO)OC)C(C)(C)C3OC)O[C@H](C)[C@@H]1C (stereo partly drawn)

Reply text:
1: 72.1 µM (inactive); 2: 0.345 µM (active); 3: 45.7 µM (inactive); 4: > 100 µM (inactive); 5: > 100 µM (inactive); 6: > 100 µM (inactive); 7: < 0.00931 µM (active)

Where do the numbers come from? From ChEMBL document CHEMBL1201862.
